- Test system: K4 kissing-loop RNA reporter;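 note: bound reporter read as fluorescence of individual clusters on recovered sequencing chips by microscopy, with normalized cluster intensities fitted with a binding model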
- measurement.description: apparent KD of K4 kissing-loop reporter; higher = weaker reporter binding
- test.parameters: Eterna round: R107; input ligand: theophylline 20 uM
Each entry below carries its recorded apparent KD of K4 kissing-loop reporter.

chain.sequence: AACUCUCAGAUACUUGAGUGAUGUUCAGGCCGAGGACCGGUACGGCCGCCACUCGGGUCUGAGAGAGGUUAUCAAAGAUAGCCAA [Omei KL Tryp A SS A v10]
apparent KD of K4 kissing-loop reporter / nM: 329
--
chain.sequence: AGUGAUAUAUGAGGAUAUGGGUUUGUUAAAGAGUUAGUUUUAGUGUUGUUUGGUUAGUGAUGUUAUUUAGAAGGCGUGAGUGAUG [foopmullin]
apparent KD of K4 kissing-loop reporter / nM: 115
--
chain.sequence: GGCACUUUUGGUAGACACCAUCUACCUCUAUAGGAUAUGCCGAAAGGCAGAAGGAUAGACCUACAGAGUGAUGUUCUGCGUGCCU
apparent KD of K4 kissing-loop reporter / nM: 946
--
chain.sequence: GUUACGCAUGGAAGGAGCGCUCUCAUACUUAAUAACACAGUGAUGUUGUGAAUUUGUAUAAAGCAGGUAGGUCGCCAUGUGUAAC [Ex Arginine B K4 7]
apparent KD of K4 kissing-loop reporter / nM: 379
--
chain.sequence: AAAUUCUUUUUUUUAUAUAACGAUUCAGAAGGAGCGAGGUAGAACUCAGGUAGGUCGCUGAAUAUAAGACUAGUGAUGUUAGUAA [#01 K4 Arginine A Same State]
apparent KD of K4 kissing-loop reporter / nM: 238
--
chain.sequence: AUUUUUUUAUCAGGAUAUUAGUGUUGGUUUGUUUUGUUAGUGAUGUUGAUAUUUGUUUUAUGUAUUUAAGAAGGGAUUUAGAUGU [viuupullin]
apparent KD of K4 kissing-loop reporter / nM: 371
--
chain.sequence: UCCUGCAAUCUGCCACGAAAGUGGAUUGAUACCAGAGUCGAAAGACUCCCUUGGCAGCGAGUGAUGUUCGUAGCAGGUAAAUAAA [MatMod 6 - Jieux - Exclusion - Theophylline A]
apparent KD of K4 kissing-loop reporter / nM: 218
--
chain.sequence: UGUAUGUGAUUUGAUACCAGACCAGCUGGUGGUAUCUGAGUGAUGUUCAGGUAGGUUUGGGUCCCUUGGCAGCAAAUCGCAUACU [KL-SSTheoB26]
apparent KD of K4 kissing-loop reporter / nM: 150
--
chain.sequence: CUAUGGAAACAUAGUAAUCGGGAAACCGAUACCAGUAUGGAAACAUACCCUUGGCAGCGGAAUGAUUAAACGGAGUGAUGUUCCG [Theophylline A K4 17]
apparent KD of K4 kissing-loop reporter / nM: 237
--
chain.sequence: AUUUGUUACCUUAUAGGAGUGAUGUUCUUGCGAGGACCGGUACGGCCGCCACUCGCGCUGGCGCCUAGCCUCGGACCGUUAAUUC [theeternabot_exclusion_KL_Trp_A_25]
apparent KD of K4 kissing-loop reporter / nM: 497
--
chain.sequence: GACGGGCAGUGAUGUUGCCGGUCUCUUGGACGAGGACCGGUACGGCCGCCACUCGAUCUGAUGCAAGAAUCGCAUCUUUUAAUAA [Biququan]
apparent KD of K4 kissing-loop reporter / nM: 312
--
chain.sequence: AAGGCCGCGCGGUGAUGUUUCAUCGCCGCCCGAGGACCGGUACGGCCGCCACUCGGAUAUAUCGCAGUGAUGUUGCUCUAUAUCA [Exclusion - Tryptophan A]
apparent KD of K4 kissing-loop reporter / nM: 167

Attribution: the supplement of paper PMC9170038
